Molecular target: human TLR8 (Homo sapiens (Human))
Sequence (Q9NR97 27-1041): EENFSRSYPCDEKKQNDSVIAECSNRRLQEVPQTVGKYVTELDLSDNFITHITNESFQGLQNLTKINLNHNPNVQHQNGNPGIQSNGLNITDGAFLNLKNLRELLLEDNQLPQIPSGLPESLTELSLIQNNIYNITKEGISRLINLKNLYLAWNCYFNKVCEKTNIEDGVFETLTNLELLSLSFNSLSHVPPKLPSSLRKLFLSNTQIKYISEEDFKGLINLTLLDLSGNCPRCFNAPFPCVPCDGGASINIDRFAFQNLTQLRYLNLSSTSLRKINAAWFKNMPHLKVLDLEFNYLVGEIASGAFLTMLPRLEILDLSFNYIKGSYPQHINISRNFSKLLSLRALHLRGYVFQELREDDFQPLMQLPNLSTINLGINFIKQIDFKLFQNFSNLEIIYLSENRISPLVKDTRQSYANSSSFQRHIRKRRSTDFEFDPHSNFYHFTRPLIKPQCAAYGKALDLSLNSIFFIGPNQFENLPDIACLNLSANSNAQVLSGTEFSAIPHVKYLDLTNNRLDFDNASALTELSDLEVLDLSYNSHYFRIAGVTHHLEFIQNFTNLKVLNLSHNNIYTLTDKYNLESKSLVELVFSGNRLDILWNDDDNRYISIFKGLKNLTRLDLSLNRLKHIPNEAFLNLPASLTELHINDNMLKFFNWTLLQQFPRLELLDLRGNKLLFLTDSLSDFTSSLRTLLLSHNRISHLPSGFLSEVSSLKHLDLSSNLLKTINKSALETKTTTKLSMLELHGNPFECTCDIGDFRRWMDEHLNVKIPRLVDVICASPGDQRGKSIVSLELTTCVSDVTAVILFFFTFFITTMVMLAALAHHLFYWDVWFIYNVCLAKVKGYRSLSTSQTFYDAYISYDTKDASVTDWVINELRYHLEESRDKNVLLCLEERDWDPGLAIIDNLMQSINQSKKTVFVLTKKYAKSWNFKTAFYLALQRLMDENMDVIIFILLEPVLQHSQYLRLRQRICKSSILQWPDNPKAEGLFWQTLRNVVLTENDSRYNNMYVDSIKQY
Assay: TLR8 inhibition reporter assay (HEK-Blue SEAP)
Settings: read-out: TLR8 IC50; HEK-Blue cells overexpressing human TLR8, R848 15.9 μM stimulation, SEAP reporter
Threshold check on IC50: strictly below 2 nM is class 1; on or above 2 nM is class 0.

(Q) Hi there! Is IC50 for Cc1c(-c2[nH]c3cnc(C4CCC(NC(C)C)CC4)cc3c2C(C)C)cn2ncnc2c1C (stereo not drawn) [Example 326] below 2 nM, do you know?
(A) class 0

(Q) Let us now turn to COc1cc(-c2[nH]c3cnc(C4CCC(NCC(C)(C)C)CC4)cc3c2C(C)C)cn2ncnc12 (stereo not drawn) [Example 310]
(A) class 0

(Q) Let us now turn to Cc1c(-c2[nH]c3cnc(C4CCC(NC5CCOC5)CC4)cc3c2C(C)C)cn2ncnc2c1C (stereo not drawn) [Example 327]
(A) class 0

###

Entries and their measured pIC50 follow.
Target: human TLR8 (Homo sapiens (Human))
Assay: TLR8 inhibition reporter assay (HEK-Blue SEAP);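 also: SEAP driven by IFN-β minimal promoter with five NF-κB and AP-1 sites, compounds tested 0.05 nM to 50 µM, 22 h incubation, inhibition relative to agonist plus DMSO wells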
Settings: read-out: TLR8 IC50; HEK-Blue cells overexpressing human TLR8; R848 15.9 μM stimulation; SEAP reporter
Scale note: pIC50 = -log10(concentration in M).

Worked cases, pIC50 given:
| COMPOUND | REPORTED |
| --- | --- |
| COc1cc(-c2[nH]c3cnc(N4CCN(C5CCN(C(C)C)CC5)C[C@H]4C)c(F)c3c2C(C)C)cn2ncnc12 | 8.24 |
| CNC(=O)CN1CCN(c2ncc3[nH]c(-c4cn5ncnc5c(C)c4C)c(C(C)C)c3c2F)[C@H](C)C1 | 8.51 |
| COc1cc(-c2[nH]c3cnc(C4CCC(NC5COC5)CC4)c(F)c3c2C(C)C)cn2ncnc12 (centres unmarked) [Example 223] | 8.62 |
| Cc1c(-c2[nH]c3cnc(N4CCN(CC(=O)N5CCOCC5)C[C@H]4C)c(F)c3c2C(C)C)cn2ncnc2c1C | 8.46 |

(Q) Sample `Cc1c(-c2[nH]c3cnc(N4CCC(NC5COC5)CC4)c(C)c3c2C(C)C)cn2ncnc2c1C` — what was its pIC50?
(A) 9.02

###

Target: human TLR7 (Homo sapiens (Human))
Sequence (Q9NYK1 27-1049): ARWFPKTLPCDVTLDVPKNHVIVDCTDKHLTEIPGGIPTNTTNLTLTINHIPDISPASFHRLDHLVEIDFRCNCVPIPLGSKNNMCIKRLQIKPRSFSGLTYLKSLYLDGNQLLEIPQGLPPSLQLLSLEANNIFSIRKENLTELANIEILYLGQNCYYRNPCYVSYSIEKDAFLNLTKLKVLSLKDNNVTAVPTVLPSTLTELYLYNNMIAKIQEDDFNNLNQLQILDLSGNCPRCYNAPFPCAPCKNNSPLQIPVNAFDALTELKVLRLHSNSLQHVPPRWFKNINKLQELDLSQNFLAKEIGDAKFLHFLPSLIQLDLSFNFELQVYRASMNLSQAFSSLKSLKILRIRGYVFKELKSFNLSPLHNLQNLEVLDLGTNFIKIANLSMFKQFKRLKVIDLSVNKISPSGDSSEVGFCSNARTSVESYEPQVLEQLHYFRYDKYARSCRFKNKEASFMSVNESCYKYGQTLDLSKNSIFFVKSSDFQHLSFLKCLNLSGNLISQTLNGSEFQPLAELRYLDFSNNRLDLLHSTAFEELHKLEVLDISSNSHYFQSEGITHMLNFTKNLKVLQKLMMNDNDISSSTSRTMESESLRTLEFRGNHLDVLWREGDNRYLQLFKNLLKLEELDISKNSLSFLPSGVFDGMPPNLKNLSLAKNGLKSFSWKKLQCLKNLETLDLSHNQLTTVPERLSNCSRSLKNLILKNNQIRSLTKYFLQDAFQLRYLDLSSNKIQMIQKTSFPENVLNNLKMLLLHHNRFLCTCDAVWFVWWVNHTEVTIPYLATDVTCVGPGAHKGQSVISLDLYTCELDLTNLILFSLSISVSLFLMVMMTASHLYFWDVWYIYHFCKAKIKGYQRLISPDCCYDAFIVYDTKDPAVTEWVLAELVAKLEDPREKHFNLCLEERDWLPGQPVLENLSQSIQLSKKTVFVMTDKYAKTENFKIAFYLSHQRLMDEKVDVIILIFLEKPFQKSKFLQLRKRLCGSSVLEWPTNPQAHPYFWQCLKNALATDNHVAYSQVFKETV
Assay: TLR7 inhibition reporter assay (HEK-Blue SEAP)
Settings: HEK-Blue cells overexpressing human TLR7, gardiquimod 7.5 μM stimulation
PARAMETER MEASURED: IC50 (nM)
Could you give me the number in nM? Just the number is fine.

Worked cases, IC50 given:
| COMPOUND | PARAMETER MEASURED | UNIT ABBREV | REPORTED |
| --- | --- | --- | --- |
| COCCN1CCN(c2ncc3[nH]c(-c4cc(OC)c5ncnn5c4)c(C(C)C)c3c2F)[C@H](C)C1 | IC50 | nM | 5 |
| CNC(=O)CN1CCC(c2ncc3[nH]c(-c4cc(C)c5ncnn5c4)c(C(C)C)c3c2F)CC1 | IC50 | nM | 1.5 |
| Cc1cc(-c2[nH]c3cnc(N4CCC(NC5CCOCC5)CC4)c(F)c3c2C(C)C)cn2ncnc12 | IC50 | nM | 0.74 |
| COc1cc(-c2[nH]c3cnc(N4CCN(CCS(C)(=O)=O)CC4)c(C)c3c2C(C)C)cn2ncnc12 | IC50 | nM | 12 |
| COc1cc(-c2[nH]c3cnc(C4CCC(N5CC6(COC6)C5)C4)cc3c2C(C)C)cn2ncnc12 (stereo not drawn) [Example 141] | IC50 | nM | 27 |

(Q) Sample `COc1cc(-c2[nH]c3cnc(N4CCC(NC5CCOCC5)CC4)c(F)c3c2C(C)C)cn2ncnc12` — what was its IC50?
(A) 0.8

(Q) Let us now turn to `COc1cc(-c2[nH]c3cnc(N4CCN(C(=O)CN5CCOCC5)C[C@H]4C)c(F)c3c2C(C)C)cn2ncnc12`
(A) 25

(Q) Let us now turn to `COc1cc(-c2[nH]c3cnc(N4CC5(C4)CN(C4CCN(C(C)C)CC4)C5)c(F)c3c2C(C)C)cn2ncnc12`
(A) 16

(Q) Let us now turn to `COc1cc(-c2[nH]c3cnc(N4CCN(CCS(C)(=O)=O)CC4)c(F)c3c2C(C)C)cn2ncnc12`
(A) 4.9

(Q) Let us now turn to `COc1cc(-c2[nH]c3cnc(N4CCC(NCC(C)(C)O)CC4)c(F)c3c2C(C)C)cn2ncnc12`
(A) 0.79

(Q) Let us now turn to Cc1cc(-c2[nH]c3cnc(C4CCC(N(C)C(C)C)CC4)c(F)c3c2C(C)C)cn2ncnc12 (stereo not drawn) [Example 261]
(A) 0.61

(Q) Let us now turn to `COc1cc(-c2[nH]c3cnc(C4CCN(CC(=O)N(C)C)CC4)cc3c2C(C)C)cn2ncnc12`
(A) 14

(Q) Let us now turn to `COc1cc(-c2[nH]c3cnc(N4CCN(CC5CCOCC5)CC4)c(F)c3c2C(C)C)cn2ncnc12`
(A) 2.7

(Q) Let us now turn to `Cc1c(-c2[nH]c3cnc(N4CCN(CC(N)=O)CC4)c(C)c3c2C(C)C)cn2ncnc2c1C`
(A) 41

(Q) Let us now turn to `Cc1c(-c2[nH]c3cnc(N4CCN(C(=O)CN5CCOCC5)C[C@H]4C)c(F)c3c2C(C)C)cn2ncnc2c1C`
(A) 27

###

Target: human TLR9 (Homo sapiens (Human), UniProt Q9NR96)
Sequence (Q9NR96 26-1032): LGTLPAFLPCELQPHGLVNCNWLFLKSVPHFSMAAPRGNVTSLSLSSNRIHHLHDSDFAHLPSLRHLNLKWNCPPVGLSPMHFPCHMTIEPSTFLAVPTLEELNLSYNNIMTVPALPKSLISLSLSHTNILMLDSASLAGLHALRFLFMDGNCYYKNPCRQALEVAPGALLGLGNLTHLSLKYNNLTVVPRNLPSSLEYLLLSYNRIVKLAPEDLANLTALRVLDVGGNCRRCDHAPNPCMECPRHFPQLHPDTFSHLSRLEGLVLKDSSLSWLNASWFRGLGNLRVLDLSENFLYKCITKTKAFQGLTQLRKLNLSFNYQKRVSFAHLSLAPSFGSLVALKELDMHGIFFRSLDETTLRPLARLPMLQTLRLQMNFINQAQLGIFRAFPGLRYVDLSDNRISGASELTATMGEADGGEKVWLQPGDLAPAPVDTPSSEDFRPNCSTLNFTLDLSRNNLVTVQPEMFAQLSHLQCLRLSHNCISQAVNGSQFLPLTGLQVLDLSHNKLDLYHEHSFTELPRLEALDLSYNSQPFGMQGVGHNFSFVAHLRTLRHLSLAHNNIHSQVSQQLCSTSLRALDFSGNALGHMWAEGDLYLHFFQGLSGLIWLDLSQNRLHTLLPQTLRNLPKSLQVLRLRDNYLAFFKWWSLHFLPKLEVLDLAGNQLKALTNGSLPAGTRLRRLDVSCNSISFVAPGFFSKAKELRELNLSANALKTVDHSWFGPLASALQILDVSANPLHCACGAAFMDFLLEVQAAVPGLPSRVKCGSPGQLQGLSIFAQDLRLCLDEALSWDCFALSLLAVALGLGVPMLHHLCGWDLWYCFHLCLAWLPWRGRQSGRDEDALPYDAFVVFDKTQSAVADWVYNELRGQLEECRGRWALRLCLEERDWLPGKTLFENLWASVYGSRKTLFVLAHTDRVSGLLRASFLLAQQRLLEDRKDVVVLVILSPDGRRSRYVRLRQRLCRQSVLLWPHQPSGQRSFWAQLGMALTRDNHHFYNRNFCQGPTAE
Assay: TLR9 inhibition reporter assay (HEK-Blue SEAP)
Conditions: read-out: TLR9 IC50; HEK-Blue cells overexpressing human TLR9, ODN2006 5 nM stimulation, SEAP reporter
Entries and their measured IC50 follow.
Could you give me the number in nM? Just the number is fine.

| COMPOUND | UNIT ABBREV | REPORTED |
| --- | --- | --- |
| Cc1cc(-c2[nH]c3cnc(N4CCC(NCC5(C)COC5)CC4)c(F)c3c2C(C)C)cn2ncnc12 | nM | 5900 |

(Q) Notebook entry, human TLR9 (Homo sapiens (Human), UniProt Q9NR96) assay: IC50 of `COc1cc(-c2[nH]c3cnc(C4CCNCC4)cc3c2C(C)C)cn2ncnc12` = ?
(A) 920

(Q) Let us now turn to COc1cc(-c2[nH]c3cnc(C4CCC(NCC5(C)COC5)C4)cc3c2C(C)C)cn2ncnc12 (centres unmarked) [Example 59]
(A) 197

(Q) Let us now turn to COc1cc(-c2[nH]c3cnc(C4CCC(NC5COC5)C4)cc3c2C(C)C)cn2ncnc12 (centres unmarked) [Example 178]
(A) 321

(Q) Let us now turn to `COCCN1CCN(c2ncc3[nH]c(-c4cc(OC)c5ncnn5c4)c(C(C)C)c3c2C)CC1`
(A) 2530

(Q) Let us now turn to CCN(C)C1CCC(c2ncc3[nH]c(-c4cc(C)c5ncnn5c4)c(C(C)C)c3c2F)CC1 (centres unmarked) [Example 163]
(A) 1320

(Q) Let us now turn to `COc1cc(-c2[nH]c3cnc(N4CCC(NCC5(C)COC5)CC4)c(F)c3c2C(C)C)cn2ncnc12`
(A) 5800

(Q) Let us now turn to COc1cc(-c2[nH]c3cnc(C4CCC(NC(C)C)CC4)c(F)c3c2C(C)C)cn2ncnc12 (centres unmarked) [Example 73]
(A) 2960

###

Target: human TLR9 (Homo sapiens (Human), UniProt Q9NR96)
Experiment: TLR9 inhibition reporter assay (HEK-Blue SEAP);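 also: SEAP driven by IFN-β minimal promoter carrying five NF-κB and AP-1 sites, 22 h at 37 °C, compounds 0.05 nM–50 µM, inhibition scaled between agonist-plus-DMSO and reference-inhibitor wells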
Conditions: read-out: TLR9 IC50; HEK-Blue cells overexpressing human TLR9, ODN2006 5 nM stimulation, SEAP reporter
PARAMETER MEASURED: pIC50
Scale note: pIC50 = -log10(concentration in M).

Worked cases, pIC50 given:
| COMPOUND | pIC50 |
| --- | --- |
| Cc1c(-c2[nH]c3cnc(N4CCN(CC(=O)N(C)C)CC4)c(C)c3c2C(C)C)cn2ncnc2c1C | 4.70 |
| CCN(C)C1CCC(c2ncc3[nH]c(-c4cc(OC)c5ncnn5c4)c(C(C)C)c3c2F)CC1 (stereo not drawn) | 6.39 |
| COc1cc(-c2[nH]c3cnc(C4CCC(N5CC(OC)C5)CC4)c(C)c3c2C(C)C)cn2ncnc12 (stereo not drawn) [Example 180] | 6.18 |

(Q) Sample `Cc1c(-c2[nH]c3cnc(N4CCC(NCC5(C)COC5)CC4)c(C)c3c2C(C)C)cn2ncnc2c1C` — what was its pIC50?
(A) 6.03

(Q) Let us now turn to `Cc1c(N2CCC(NCC(C)(C)O)CC2)ncc2[nH]c(-c3cc(C)c4ncnn4c3)c(C(C)C)c12`
(A) 5.79

(Q) Let us now turn to CNC(=O)CN(C)C1CCC(c2cc3c(C(C)C)c(-c4cc(OC)c5ncnn5c4)[nH]c3cn2)CC1 (stereo not drawn) [Example 338]
(A) 5.96

(Q) Let us now turn to `CNC(=O)CNC1CCN(c2cc3c(C(C)C)c(-c4cc(OC)c5ncnn5c4)[nH]c3cn2)CC1`
(A) 6.19

(Q) Let us now turn to `COc1cc(-c2[nH]c3cnc(C4CCN(C(C)C)CC4)c(F)c3c2C(C)C)cn2ncnc12`
(A) 5.75

(Q) Let us now turn to Cc1c(-c2[nH]c3cnc(C4CCC(NC5COC5)CC4)c(F)c3c2C(C)C)cn2ncnc2c1C (stereo not drawn) [Example 174]
(A) 5.11

(Q) Let us now turn to COc1cc(-c2[nH]c3cnc(C4CCC(NC[C@@H](F)C(C)(C)O)CC4)c(C)c3c2C(C)C)cn2ncnc12 (stereo partly drawn) [Example 89]
(A) 6.36

Values compiled from patent US11912703B2.
